# System: OVCAR-5 ovarian
# Experiment Description: NCI tumour cell line growth inhibition, 48 h; in the data active = GI50 below about 0.43 µM; inactive = the rest
Classes used: T for active, F for inactive

{"columns": ["Compound", "System Name", "Group Label"],
 "data": [
  ["COc1ccc(-c2ccc(-c3ccc(C(=N)N)nc3)s2)cc1", "OVCAR-5 ovarian", "F"],
  ["CCc1c(C)[nH]c(/C=C2\\N=C(c3ccc[nH]3)C=C2OC)c1C", "OVCAR-5 ovarian", "T"],
  ["CCN(CC)CCOc1ccc(C(=C(C)c2ccc(Cl)cc2)c2ccc(OCCN(CC)CC)cc2)cc1", "OVCAR-5 ovarian", "F"],
  ["COc1ccc2c(c1)CCC1C2CCC2(C)C1CCC2(O)CNC(=O)CCCCC1CCSS1 (centres undefined)", "OVCAR-5 ovarian", "F"],
  ["CCOC(=O)Cc1c[nH]c(=S)[nH]c1=O", "OVCAR-5 ovarian", "F"],
  ["C=C1C(=O)O[C@@H]2C1CC(=O)C(C)CC/C=C(\\C)CCC[C@H](C)[C@H]2OC(C)=O (some centres undefined)", "OVCAR-5 ovarian", "F"],
  ["CCC[CH2][Sn]([CH2]CCC)([O]C(C)=O)[O]C(C)=O", "OVCAR-5 ovarian", "F"],
  ["N=C(N)c1nn(C2OC(CO)C(O)C2O)c2nc[nH]c(=O)c12 (centres undefined)", "OVCAR-5 ovarian", "F"],
  ["Nc1nc(/C=C\\c2ccc([N+](=O)[O-])o2)nc(N2CCN(c3ccccc3)CC2)n1", "OVCAR-5 ovarian", "F"],
  ["CCN=C1C=CC(=C(c2ccc(N(C)C)cc2)c2ccc(N(C)C)cc2)c2ccccc21", "OVCAR-5 ovarian", "T"],
  ["CC[C@H](Nc1nc(N)nc(C)c1C#N)c1nc2cccc(CN(C)c3ncc(C(=O)NO)cn3)c2c(=O)n1-c1ccccc1", "OVCAR-5 ovarian", "F"],
  ["CC12CCC=CC1CCC1C2CCC2(C)C(c3ccc(=O)oc3)CCC12O (centres undefined)", "OVCAR-5 ovarian", "T"],
  ["CN(C)CCCNC(=O)c1cc(NC(=O)CCNS(=O)(=O)c2ccc3c(c2)C(=O)c2ccccc2C3=O)cn1C", "OVCAR-5 ovarian", "F"],
  ["COc1cc(Cn2cc3c(c2)-c2oncc2CC3)cc(OC)c1OC", "OVCAR-5 ovarian", "T"],
  ["OCC1OC(n2ccc3c2ncn2ncnc32)C(O)C1O (centres undefined)", "OVCAR-5 ovarian", "F"],
  ["O=S(=O)(c1ccc(NC(=S)NCc2cccnc2)cc1)N1CCCCC1", "OVCAR-5 ovarian", "F"],
  ["O=c1cc(CNc2cc(F)cc(F)c2)c2ccc(I)cc2[nH]1", "OVCAR-5 ovarian", "F"],
  ["COc1ccc(Cn2nc(-c3cc(OC)c(OC)c(OC)c3)c3c2CCc2cnoc2-3)cc1OC", "OVCAR-5 ovarian", "F"],
  ["COc1cccc(C2=C(c3cn(C)c4ccccc34)C(=O)NC2=O)c1", "OVCAR-5 ovarian", "F"]
]}

Reference source for all entries: PubChem BioAssay (NCI)
